tested on: p-388 leukemia cells; assay: Antitumour activity, P-388 leukemia in BDF1 mice, intraperitoneal-intraperitoneal (Test Example 1); assay type: in vivo; settings: Mus musculus, P388, ip, 720 h, read-out: ILS (Increase Life Span)
READOUT TYPE: ILS at 100 mg/kg (%)

SMILES STR: O=C(NC(=O)c1ccc(Cl)cc1[N+](=O)[O-])Nc1ccc(Oc2ccc(Br)nn2)c(Cl)c1
QUALIFIER SYMBOL: =
RECORDED MEASUREMENT: 111
//
SMILES STR: O=C(NC(=O)c1ccccc1[N+](=O)[O-])Nc1ccc(Oc2ccc(Br)nn2)cc1
QUALIFIER SYMBOL: >
RECORDED MEASUREMENT: 120
//
SMILES STR: O=C(NC(=O)c1ccc([N+](=O)[O-])cc1[N+](=O)[O-])Nc1ccc(Oc2ccc(Br)nn2)c(Cl)c1
QUALIFIER SYMBOL: =
RECORDED MEASUREMENT: 102
//
SMILES STR: O=C(NC(=O)c1ccccc1[N+](=O)[O-])Nc1ccc(Oc2ccc(Br)nn2)c(F)c1
QUALIFIER SYMBOL: =
RECORDED MEASUREMENT: 90
